# Tested on: A498 renal
# Procedure Details: NCI tumour cell line growth inhibition, 48 h
Assay Metric: TGI

Requested field: TGI. Item: Cc1ccc(CC(=O)Nc2ccc(NC(=O)CNC(=O)/C=C/c3ccc(-c4ccccc4)cc3)cc2C(=O)c2ccccc2)cc1 8.73 µM

Cool, now Cc1ccc(NC(=O)CC(=O)N2N=C(c3ccccc3)C(N=Nc3ccc(S(=O)(=O)CCOS(=O)(=O)O)cc3)C2=O)cc1 (stereo not drawn) > 100 µM

Record: O=C(/C=C/c1ccc(Cl)cc1)c1ccncc1 88.7 µM

Also CC(C)(C)OC(=O)N1C/C=C\C(=O)C2(OCCO2)c2ccccc21 , if possible. > 100 µM

Field entry: Cc1ccc(Nc2nc(NS(=O)(=O)c3cc(C)c(Cl)cc3S)n[nH]2)cc1 > 100 µM

Quick one: Cc1ccnc2sc3ccccc3c(=O)c12 > 100 µM

Repeat for the following compound: N#CI1OC(C(F)(F)F)(C(F)(F)F)c2ccccc21 > 100 µM

CCc1cccc(C(C)CC)c1NC(=O)CC1C(=O)Nc2ccccc2S1=O (stereo not drawn) ? > 100 µM

Entry to check: CC(CN(C)C)C(=O)/C=C/c1ccc(Cl)c(Cl)c1 (stereo not drawn) 3.69 µM

Consider next the compound CN1CCN(c2c(O)c3c(c(O)c2Cl)C(=O)C=CC3=O)CC1 in the same way. 4.54 µM

Same question, O=c1cc2cc(O)[nH]c(=O)c2c(O)[nH]1 this time > 100 µM

# repeat for CC1CN=C(N(C)C(=O)Nc2ccc(Cl)c(Cl)c2)S1 (stereo not drawn) > 100 µM

Record: COc1ccc(CCC2NCCc3cc(OC)c(OC)cc32)cc1 (stereo not drawn) > 100 µM

How about CCCN1C(=O)/C(=C(/O)C(=O)OCC)C(c2ccc(OC)c(OC)c2)C1=O (stereo not drawn) ? > 100 µM

Lookup COc1ccc2sc3c(NCCCNCCO)nc4ccccc4c3c(=O)c2c1 2.97 µM

Now the compound C/C(=C/c1c(C)[nH]c(=O)[nH]c1=O)C(=O)O > 1380 µM

Next compound up: C=C1CO[C@@H]2C[C@@H]1CCC1(C)OC1CC/C(C)=C/CC[C@@]2(C)O (stereo partly drawn) > 100 µM

Field entry: COC(=O)c1ccccc1N=Cc1ccc(N(CCC#N)S(=O)(=O)c2ccccc2)cc1 > 100 µM

Provenance of the data: PubChem BioAssay (NCI)
